Reference for the values: PubChem BioAssay (NCI)

Catalogue of growth readings, one per entry.
test system: NCI-H23 lung; test: NCI-60 one-dose screen, 48 h (100 = growth as untreated, 0 = no growth, -100 = all killed); settings: 10 µM unless noted
The panel holds about 83,000 compounds, 20% with a hit somewhere; the sample as a whole holds those more often.
observationType: growth (%)

compound	measurementTarget	observationType	observed
CCN1C(=O)N(CC)C2C1NC(=S)N2/N=C/c1ccc(OC)cc1 (stereo not given)	NCI-H23 lung	growth	74.9
CCc1ccc(CCC(=O)Nc2ncc(Cc3cc(Cl)ccc3Cl)s2)o1	NCI-H23 lung	growth	48.4
COc1ccc(NC(=O)Nc2ccc(OCCCCCC(=O)NO)cc2)cc1	NCI-H23 lung	growth	98
S=C(c1ccc2c(c1)OCO2)N1CCN(c2cccc(Cl)c2)CC1	NCI-H23 lung	growth	35
Cc1nnc(-c2ccc3c(c2)nc(/C=C/c2ccccc2)n3C2CCCCC2)o1	NCI-H23 lung	growth	88.3
COc1cc(-c2nc3sccn3c2-c2ccnc(NCCNS(=O)(=O)c3ccc(Cl)cc3)n2)ccc1F	NCI-H23 lung	growth	18.7
C=C(CNCCO)[C@@H]1CC[C@]2(CO)CC[C@]3(C)[C@H](CC[C@@H]4[C@@]5(C)CCC(N)C(C)(C)[C@@H]5CC[C@]43C)[C@@H]12 (stereo not given in full)	NCI-H23 lung	growth	83.7
CC(=O)OC(c1ccccc1)C1CCOC1=O (stereo not given)	NCI-H23 lung	growth	93.8
Clc1ccc(-c2cc(-c3ccccc3)nc(NCCNc3ccnc4cc(Cl)ccc34)n2)cc1	NCI-H23 lung	growth	74.3
CN(C)c1ccc(/C=C(\C#N)c2cc3ccccc3[nH]2)cc1	NCI-H23 lung	growth	28.4
Cc1ccc(-c2csc(N(C(=O)N3CCN(c4cc5c(cc4F)c(=O)c(C(=O)O)cn5C4CC4)CC3)c3ccccc3)n2)cc1	NCI-H23 lung	growth	-0.349
Cc1ccc(-c2csc(NC(=O)c3ccccc3CN3C(=O)c4ccccc4C3=O)n2)cc1	NCI-H23 lung	growth	93.3
C[C@@H]1O[C@@H](O[C@@H]2C[C@H](c3ccc4c(c3O)C(=O)C3=C(C4=O)[C@@]4(O)C(=O)C[C@](C)(O)C[C@@]4(O)C=C3)O[C@H](C)[C@H]2O)CC[C@@H]1O[C@H]1C[C@@H](O)[C@H](O)[C@@H](C)O1	NCI-H23 lung	growth	100
CNCc1cccc2c1OCCOCCOCCNS(=O)(=O)c1ccc(cc1)-c1cnc(N)c(n1)C(=O)N2	NCI-H23 lung	growth	36.7
CCOC(=O)C1=C(C)/C(=C\c2[nH]c(C)c(C(=O)OCC)c2C)N=C1C	NCI-H23 lung	growth	80.2
N#CC1=C(N)Oc2ccc3ccccc3c2C1c1ccc([N+](=O)[O-])cc1 (stereo not given)	NCI-H23 lung	growth	78.2
O=C(Nc1ccc(Cl)cc1)Oc1c(Cl)c(Cl)c(Cl)c(Cl)c1Cl	NCI-H23 lung	growth	86.1
COc1ccc(Cn2cc3c(c2-c2ccccc2)CCc2cnoc2-3)cc1	NCI-H23 lung	growth	27.2
C/C(Cc1ccc(Cl)cc1)=C(\c1ccc(OCCCN(C)C)cc1)c1ccc(OC(=O)Cc2ccccc2)cc1	NCI-H23 lung	growth	101
COc1ccc(/C=C/c2c(C(=O)/C=C/c3ccccc3)c(C)nc3ccccc23)cc1	NCI-H23 lung	growth	20

* * *

system: SW-620 colon; test: NCI-60 one-dose screen, 48 h; conditions: 10 µM unless noted
About 83,000 compounds went through this panel and 20% of them were active in at least one assay; those are over-represented in the sample as a whole. Calls of active or inactive are those of the source. The calls were made as follows: active = growth percent below 10; inactive = the rest.
Outcome codes: yes (1) for active, no (0) for inactive

> print(dat)
                     compoundstructurestring  measurementtarget  classification
 1  CNCc1cccc2c1OCCOCCOCCNS(=O)(=O)c1ccc(cc1)-c1cnc(N)c(n1)C(=O)N2       SW-620 colon          no (0)
 2  Cc1nc2ccccc2c(/C=C/c2ccccc2)c1C(=O)/C=C/c1ccccc1       SW-620 colon         yes (1)
 3  C#COc1cccc(Nc2ncnc3cc(NC(=O)[C@@H](C)Cl)ccc23)c1       SW-620 colon          no (0)
 4                  Cc1n[nH]c2ccc(Br)cc2c1=O       SW-620 colon          no (0)
 5  O=C(Cn1nnc2ccccc21)N/N=C/c1c[nH]c2ccccc12       SW-620 colon          no (0)
 6  O=C1/C=C/[C@@H](O)[C@@H]2C[C@@H](O)C[C@H]2/C=C/CCC[C@H](CCO)O1       SW-620 colon         yes (1)
 7  CN(C)S(=O)(=O)Oc1ccc(-c2sc3cc(OS(=O)(=O)N(C)C)ccc3c2C(=O)c2ccc(OCCN3CCCCC3)cc2)cc1       SW-620 colon          no (0)
 8  COc1cc(OC)c2sc(-c3ccc(-n4cncc4-c4cc(OC)c(OC)c(OC)c4)cc3)nc2c1       SW-620 colon          no (0)
 9  O=C(CC(=O)Nc1cccc(C(=O)O)c1)Nc1cccc(C(=O)O)c1       SW-620 colon          no (0)
10            CCCCC#Cc1c(I)n(C)c(=O)[nH]c1=O       SW-620 colon         yes (1)

* * *

tested on: A549/ATCC NSCLC; test: NCI-60 one-dose screen, 48 h; conditions: 10 µM unless noted
The panel holds about 83,000 compounds, 20% with a hit somewhere; the sample as a whole holds those more often. Calls of active or inactive are those of the source. Rule for the calls: active = growth percent below 10; inactive = the rest.
Outcomes: yes for active, no for inactive

> print(dat)
                                    compound  classification
 1  O=C1/C(=C\c2ccccn2)c2ccccc2N1c1c(Cl)cccc1Cl              no
 2  NNCCc1ccc(NC(=O)CCCc2ccc(C(=O)Nc3ccccc3N)cc2)cc1              no
 3  S=c1nc2oc(-c3ccccc3)c(-c3ccccc3)c2c(/N=C\c2ccco2)[nH]1              no
 4  CC[C@]12C=CCN3CC[C@@]4(c5ccc(OC)cc5N(C)[C@H]4[C@@](O)(C(=O)OC)[C@@H]1OC(=O)CCC[P+](c1ccccc1)(c1ccccc1)c1ccccc1)[C@@H]32              no
 5  CC1C=CC(OC(=O)C(C)(O)CCC(O)(C(=O)OC2CC(O)C(C(C)C)CC2(C)O)C(C)C)(C(C)C)CC1 (stereo not drawn)             yes
 6  COc1cc(/C=C/C(=O)/C=C(O)/C=C/c2ccc(OC(=O)C34CC5CC(CC(C5)C3)C4)c(OC)c2)ccc1OC(=O)C12CC3CC(CC(C3)C1)C2              no
 7  c1nc2ccc(-c3cc4ccc5[nH]ncc5c4c4c3CCCC4)cc2[nH]1              no
 8  N#CSc1c[nH]c2cccc(/C=C/C(=O)/C=C(O)/C=C/c3cccc4[nH]cc(SC#N)c34)c12             yes
 9   COc1ccc(C(=S)N2CCN(c3ccc(Cl)cc3)CC2)cc1              no
10  CO[C@H]1CC(=O)n2c3ccccc3c3c4c(c5c6ccccc6n1c5c32)C(=O)NC4=O              no
11  CCc1n(Cc2ccc3ccccc3n2)cc[n+]1Cc1ccc2ccccc2n1              no
12  Oc1c(CN2CCC(N3CCCCC3)CC2)cc(Cc2cc(CN3CCC(N4CCCCC4)CC3)c(O)c3ncccc23)c2cccnc12              no
13  CC1=CCC(OC(=O)C(C)(C)CC(O)(C(C)O)C(O)C2(C)C=CC(Cc3ccc(C(C)C)cc3)(C(C)C)CC2)(C(C)C)CC1 (stereo not drawn)              no
14  O=C1c2ccccc2C(=O)c2c1c(C(=O)NCc1ccccc1)c1ccccn21              no
15  CCOc1ccc(-n2nc(C(=O)NCc3ccccc3OC)nc2-c2cc(OC)c(OC)c(OC)c2)cc1              no
16  CCCCCCCC/C=C\CCCCCCCCOc1ccc(CC(=O)NCC[N+]2(C)CCOCC2)cc1              no
17  CCCCNc1nnc2n(Cc3ccccc3)c(=O)c3c4c(sc3n12)CCCC4              no
18                             Cn1ccc(=O)nc1              no

* * *

test system: SR leukemia; experiment: NCI-60 one-dose screen, 48 h; details: 10 µM unless noted
Compounds without any hit were thinned out: in the full panel of roughly 83,000, 20% have a hit. The source made the active and inactive calls. Rule for the calls: active = growth percent below 10; inactive = the rest.
Possible outcomes: yes for active, no for inactive

compoundStructureString	classification
Nc1c(C(=O)Nc2cccc(Cl)c2)sc2nc3c(cc12)CCCC3	no
C#CC#CC#CC#CC#CC#CC#CC#CC[C@@H]1OC[C@@H](COC(=O)O[C@@H](C(=O)O[C@H]2C[C@@]3(O)[C@@H](OC(=O)c4ccccc4)[C@@H]4[C@]5(OC(C)=O)CO[C@@H]5C[C@H](O)[C@@]4(C)C(=O)[C@H](OC(C)=O)C(=C2C)C3(C)C)[C@@H](NC(=O)c2ccccc2)c2ccccc2)O1	yes
COc1ccc(/C=C/C(=O)c2cc(OC)c(OC)c(OC)c2)cc1OCC(=O)Nc1nc2ccc(OC(F)(F)F)cc2s1	no
Oc1c(CN2CCC(N3CCCCC3)CC2)cc(Cc2cc(CN3CCC(N4CCCCC4)CC3)c(O)c3ncccc23)c2cccnc12	no
CC1(C)CC[C@]2(C(=O)N[C@H](CO)Cc3ccccc3)CC[C@]3(C)C(=CC[C@@H]4[C@@]5(C)CCCNC(C)(C)[C@@H]5CC[C@]43C)[C@@H]2C1	yes
c1nc2ccc(-c3cc4ccc5[nH]ncc5c4c4c3CCCC4)cc2[nH]1	yes
